The following compounds are listed with their measured IC50 values.
target: HsPim-1 (Homo sapiens, UniProt P11309); construct: made in house; host or cells: Escherichia coli BL21 DE3 pLysS; experiment: Kinase assay, luminescent ADP-Glo, 10 µM ATP; assay type: biochemical; conditions: Table 1; ADP-Glo, 10 µM ATP, duplicate; read-out: Kinase Enzymatic IC50 Pim-1
Sequence (P11309 whole entry): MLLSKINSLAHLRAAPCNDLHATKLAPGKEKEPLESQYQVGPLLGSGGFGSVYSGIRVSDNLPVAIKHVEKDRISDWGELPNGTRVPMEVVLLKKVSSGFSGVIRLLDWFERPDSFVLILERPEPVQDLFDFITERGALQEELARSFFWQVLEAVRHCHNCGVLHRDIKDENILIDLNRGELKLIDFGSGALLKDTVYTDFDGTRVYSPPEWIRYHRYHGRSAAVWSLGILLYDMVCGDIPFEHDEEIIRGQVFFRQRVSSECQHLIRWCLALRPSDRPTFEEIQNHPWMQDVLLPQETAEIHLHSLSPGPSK

>  <Compound>
CC(=O)c1cc2c(cc1O)oc1c(C(N)=O)c(O)cc(O)c12 [Compound 43]

>  <Target>
HsPim-1 (Homo sapiens, UniProt P11309)

>  <Operator Symbol>
=

>  <IC50 [µM]>
0.82

$$$$
>  <Compound>
COc1cc(OC)c2c(oc3ccccc32)c1C(N)=O [Compound 19]

>  <Target>
HsPim-1 (Homo sapiens, UniProt P11309)

>  <Operator Symbol>
>

>  <IC50 [µM]>
10

$$$$
>  <Compound>
NC(=O)c1c(O)cc(O)c2c1oc1cc(O)ccc12 [Compound 44]

>  <Target>
HsPim-1 (Homo sapiens, UniProt P11309)

>  <Operator Symbol>
=

>  <IC50 [µM]>
0.06

$$$$
>  <Compound>
COc1cc(OC)c2c(oc3c(N)cccc32)c1C(N)=O [Compound 18]

>  <Target>
HsPim-1 (Homo sapiens, UniProt P11309)

>  <Operator Symbol>
>

>  <IC50 [µM]>
10

$$$$
>  <Compound>
COc1cc2oc3c(C(N)=O)c(OC)cc(OC)c3c2cc1C(C)=O [Compound 38]

>  <Target>
HsPim-1 (Homo sapiens, UniProt P11309)

>  <Operator Symbol>
>

>  <IC50 [µM]>
10

$$$$
>  <Compound>
CC(=O)C1=C(O)C=C2Oc3c(C(N)=O)c(O)cc(O)c3[C@]2(C)C1=O [Cerco, Cercosporamide]

>  <Target>
HsPim-1 (Homo sapiens, UniProt P11309)

>  <Operator Symbol>
=

>  <IC50 [µM]>
0.73

$$$$

* * *

target: MmCLK1 (Mus musculus, UniProt P22518)
Sequence (P22518 whole entry): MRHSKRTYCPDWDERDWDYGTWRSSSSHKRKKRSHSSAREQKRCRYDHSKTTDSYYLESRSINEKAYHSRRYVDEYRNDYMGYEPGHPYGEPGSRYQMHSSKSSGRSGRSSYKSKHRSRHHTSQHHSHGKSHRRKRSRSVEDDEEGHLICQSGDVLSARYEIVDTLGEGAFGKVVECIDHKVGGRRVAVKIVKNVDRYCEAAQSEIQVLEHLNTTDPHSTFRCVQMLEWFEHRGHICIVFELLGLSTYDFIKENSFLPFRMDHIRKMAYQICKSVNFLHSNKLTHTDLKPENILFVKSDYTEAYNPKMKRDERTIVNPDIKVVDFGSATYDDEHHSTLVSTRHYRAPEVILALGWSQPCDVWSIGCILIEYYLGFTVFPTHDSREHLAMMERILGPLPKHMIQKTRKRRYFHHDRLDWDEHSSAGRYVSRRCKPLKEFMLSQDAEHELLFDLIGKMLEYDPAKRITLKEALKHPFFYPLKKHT
Value Kind: IC50 (nM)

>  <Compound>
NC(=O)c1c(O)cc(O)c2c1oc1ccccc12

>  <Target>
MmCLK1 (Mus musculus, UniProt P22518)

>  <Operator Symbol>
=

>  <Obs Value>
260

$$$$
>  <Compound>
NC(=O)c1c(O)cc(O)c2c1oc1cc(O)ccc12

>  <Target>
MmCLK1 (Mus musculus, UniProt P22518)

>  <Operator Symbol>
=

>  <Obs Value>
26

$$$$
>  <Compound>
CC(=O)c1ccc2oc3c(C(N)=O)c(O)cc(O)c3c2c1

>  <Target>
MmCLK1 (Mus musculus, UniProt P22518)

>  <Operator Symbol>
=

>  <Obs Value>
140

$$$$
>  <Compound>
NC(=O)c1c(O)cc(O)c2c1oc1c(N)cccc12

>  <Target>
MmCLK1 (Mus musculus, UniProt P22518)

>  <Operator Symbol>
=

>  <Obs Value>
450

$$$$
>  <Compound>
CC(=O)C1=C(O)C=C2Oc3c(C(N)=O)c(O)cc(O)c3[C@]2(C)C1=O [Cerco, Cercosporamide]

>  <Target>
MmCLK1 (Mus musculus, UniProt P22518)

>  <Operator Symbol>
>

>  <Obs Value>
10000

$$$$

* * *

>  <Structure Smiles>
COc1cc(OC)c2c(oc3ccc(F)cc32)c1C(N)=O

>  <melting point>
230 to 231 °C

$$$$
>  <Structure Smiles>
COc1cc(OC)c2c(oc3ccccc32)c1C(N)=O

>  <melting point>
296 to 297 °C

$$$$
>  <Structure Smiles>
NC(=O)c1c(O)cc(O)c2c1oc1ccc(C(F)(F)F)cc12

>  <melting point>
347 to 348 °C

$$$$
>  <Structure Smiles>
COc1cc(OC)c2c(oc3ccc(C(F)(F)F)cc32)c1C(N)=O

>  <melting point>
250 to 251 °C

$$$$
>  <Structure Smiles>
COc1ccc2c(c1)oc1c(C(N)=O)c(OC)cc(OC)c12

>  <melting point>
332 to 333 °C

$$$$
>  <Structure Smiles>
NC(=O)c1c(O)cc(O)c2c1oc1ccccc12

>  <melting point>
219 to 220 °C

$$$$
>  <Structure Smiles>
NC(=O)c1c(O)cc(O)c2c1oc1c([N+](=O)[O-])cccc12

>  <melting point>
> 300 °C

$$$$
>  <Structure Smiles>
COc1cc(OC)c2c(oc3ccc(C(C)=O)cc32)c1C(N)=O

>  <melting point>
237 to 238 °C

$$$$
>  <Structure Smiles>
COc1cc(OC)c2c(oc3c(N)cccc32)c1C(N)=O

>  <melting point>
293 to 294 °C

$$$$
>  <Structure Smiles>
CC(=O)c1cc2c(cc1O)oc1c(C(N)=O)c(O)cc(O)c12

>  <melting point>
335 to 336 °C

$$$$
>  <Structure Smiles>
COc1cc(OC)c2c(oc3c([N+](=O)[O-])cccc32)c1C(N)=O

>  <melting point>
298 to 299 °C

$$$$
>  <Structure Smiles>
NC(=O)c1c(O)cc(O)c2c1oc1ccc(F)cc12

>  <melting point>
342 to 343 °C

$$$$

* * *

In this section, each of the compounds is paired with its reported pIC50.
system: K562 cells; assay: MTT cell proliferation assay; assay type: cell-based; settings: Homo sapiens, 48 h, mean ± SEM
pIC50: −log10 of the molar value.
Value Kind: pIC50

>  <Compound>
NC(=O)c1c(O)cc(O)c2c1oc1ccc(C(F)(F)F)cc12 [Compound 47]

>  <Value Kind>
pIC50

>  <Obs Value>
< 4.00

$$$$
>  <Compound>
NC(=O)c1c(O)cc(O)c2c1oc1c([N+](=O)[O-])cccc12 [Compound 15]

>  <Value Kind>
pIC50

>  <Obs Value>
< 4.00

$$$$
>  <Compound>
CC(=O)C1=C(O)C=C2Oc3c(C(N)=O)c(O)cc(O)c3[C@]2(C)C1=O [Cerco, Cercosporamide]

>  <Value Kind>
pIC50

>  <Obs Value>
< 4.00

$$$$
>  <Compound>
NC(=O)c1c(O)cc(O)c2c1oc1ccccc12 [Compound 17]

>  <Value Kind>
pIC50

>  <Obs Value>
< 4.00

$$$$
>  <Compound>
CN1CCC(CNc2ccc3ncc(-c4cccc(OC(F)(F)F)c4)n3n2)CC1 [SGI-1776, reference compound]

>  <Value Kind>
pIC50

>  <Obs Value>
5.43

$$$$
>  <Compound>
CC(=O)c1cc2c(cc1O)oc1c(C(N)=O)c(O)cc(O)c12 [Compound 43]

>  <Value Kind>
pIC50

>  <Obs Value>
< 4.00

$$$$
>  <Compound>
CC(=O)c1ccc2oc3c(C(N)=O)c(O)cc(O)c3c2c1 [Compound 45]

>  <Value Kind>
pIC50

>  <Obs Value>
< 4.00

$$$$
>  <Compound>
NC(=O)c1c(O)cc(O)c2c1oc1cc(O)ccc12 [Compound 44]

>  <Value Kind>
pIC50

>  <Obs Value>
4.12

$$$$
>  <Compound>
NC(=O)c1c(O)cc(O)c2c1oc1ccc(F)cc12 [Compound 46]

>  <Value Kind>
pIC50

>  <Obs Value>
< 4.00

$$$$
>  <Compound>
NC(=O)c1c(O)cc(O)c2c1oc1c(N)cccc12 [Compound 16]

>  <Value Kind>
pIC50

>  <Obs Value>
< 4.00

$$$$

* * *

Here the recorded pIC50 is given for each entry.
target: HsPim-1 (Homo sapiens, UniProt P11309); construct: made in house; host or cells: Escherichia coli BL21 DE3 pLysS; test: Kinase assay, luminescent ADP-Glo, 10 µM ATP; assay type: biochemical; details: Table 1; ADP-Glo, 10 µM ATP, duplicate; read-out: Kinase Enzymatic IC50 Pim-1
pIC50: −log10 of the molar value.
Value Kind: pIC50

>  <Compound>
CC(=O)c1ccc2oc3c(C(N)=O)c(O)cc(O)c3c2c1 [Compound 45]

>  <Operator Symbol>
=

>  <Obs Value>
6.55

$$$$
>  <Compound>
COc1ccc2c(c1)oc1c(C(N)=O)c(OC)cc(OC)c12 [Compound 39]

>  <Operator Symbol>
<

>  <Obs Value>
5.00

$$$$
>  <Compound>
COc1cc(OC)c2c(oc3ccc(C(F)(F)F)cc32)c1C(N)=O [Compound 42]

>  <Operator Symbol>
<

>  <Obs Value>
5.00

$$$$
>  <Compound>
NC(=O)c1c(O)cc(O)c2c1oc1c(N)cccc12 [Compound 16]

>  <Operator Symbol>
=

>  <Obs Value>
6.89

$$$$
>  <Compound>
COc1cc(OC)c2c(oc3ccc(F)cc32)c1C(N)=O [Compound 41]

>  <Operator Symbol>
<

>  <Obs Value>
5.00

$$$$
>  <Compound>
COc1cc(OC)c2c(oc3c([N+](=O)[O-])cccc32)c1C(N)=O [Compound 14]

>  <Operator Symbol>
=

>  <Obs Value>
5.49

$$$$
>  <Compound>
NC(=O)c1c(O)cc(O)c2c1oc1c([N+](=O)[O-])cccc12 [Compound 15]

>  <Operator Symbol>
=

>  <Obs Value>
6.74

$$$$
>  <Compound>
COc1cc(OC)c2c(oc3ccc(C(C)=O)cc32)c1C(N)=O [Compound 40]

>  <Operator Symbol>
<

>  <Obs Value>
5.00

$$$$
>  <Compound>
NC(=O)c1c(O)cc(O)c2c1oc1ccccc12 [Compound 17]

>  <Operator Symbol>
=

>  <Obs Value>
6.64

$$$$
